Molecular target: human SGLT1 (Homo sapiens (Human), UniProt P13866)
Sequence (P13866 whole entry): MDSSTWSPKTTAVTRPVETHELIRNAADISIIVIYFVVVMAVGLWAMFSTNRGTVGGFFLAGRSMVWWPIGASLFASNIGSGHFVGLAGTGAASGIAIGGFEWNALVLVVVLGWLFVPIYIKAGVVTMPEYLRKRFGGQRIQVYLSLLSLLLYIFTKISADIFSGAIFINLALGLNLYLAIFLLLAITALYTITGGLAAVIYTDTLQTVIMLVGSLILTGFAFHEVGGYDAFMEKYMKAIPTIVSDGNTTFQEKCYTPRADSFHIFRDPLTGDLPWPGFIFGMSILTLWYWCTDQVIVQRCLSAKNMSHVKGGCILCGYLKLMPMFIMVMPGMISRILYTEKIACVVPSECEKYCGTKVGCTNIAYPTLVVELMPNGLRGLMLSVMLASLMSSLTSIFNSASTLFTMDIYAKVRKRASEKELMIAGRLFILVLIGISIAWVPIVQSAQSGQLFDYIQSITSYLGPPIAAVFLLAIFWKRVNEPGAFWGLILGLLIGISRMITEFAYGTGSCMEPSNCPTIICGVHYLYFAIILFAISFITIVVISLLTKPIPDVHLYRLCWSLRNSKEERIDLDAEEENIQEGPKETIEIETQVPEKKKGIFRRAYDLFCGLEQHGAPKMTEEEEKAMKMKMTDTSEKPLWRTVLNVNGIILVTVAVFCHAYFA
Assay: SGLT1 inhibitory activity: 14C-AMG uptake into CHO-K1 cell line stably expressing human SGLT1
Assay type: cell-based
Details: 14C-AMG uptake, CHO-K1 cells expressing human SGLT1
Method: SGLT1 inhibitory activity of a test compound (IC50 value) was calculated based on an amount of intake into a cell of labeled α-methyl-D-glucopyranoside (^14C-AMG) which is transported by SGLT1. 1) Construction of Human SGLT1 Expression Plasmid […]
Label key: Yes means IC50 under 0.01 µM; No means IC50 of 0.01 µM or more.

Previously resolved entries follow.
>>> label("O=C1C[C@@H](C(=O)Nc2cc(-c3cccc(OCC(F)(F)F)c3)n(-c3ccc(F)cc3)n2)CN1")
"No"
>>> label("Cc1ccc(-n2nc(NC(=O)[C@H]3CNC(=O)C3)cc2-c2cccc(C(F)(F)F)c2)cc1")
"No"
>>> label("O=C1C[C@@H](C(=O)Nc2cc(-c3cccc(OC(F)(F)F)c3)n(-c3ccccc3)n2)CN1")
"Yes"
>>> label("CCCc1cccc(-c2cc(NC(=O)[C@H]3CNC(=O)C3)nn2CCC2CCCC2)c1")
"No"
>>> label("C[C@H]1C(=O)NC[C@@H]1C(=O)Nc1cc(-c2cccc(OC(F)(F)F)c2)n(-c2ccccc2)n1")
"Yes"
>>> label("Cc1cccc(-c2cc(NC(=O)[C@H]3CNC(=O)C3)nn2-c2ccccc2)c1")
"No"

Now for a further compound.
Input: Strictly below 0.01 µM: is that where IC50 of O=C1CC(C(=O)Nc2cc(-c3ccccc3)n(-c3ccccc3)n2)CN1 (racemic) sits?
Output: No

---

Target: human SGLT1 (Homo sapiens (Human))
Assay: SGLT1 inhibitory activity: 14C-AMG uptake into CHO-K1 cell line stably expressing human SGLT1
Type: cell-based
Settings: 14C-AMG uptake, CHO-K1 cells expressing human SGLT1
Listed below: IC50 values for each entry.
Numeric answer only, unit nM assumed.

>>> experimentalvalue("CCCc1cccc(-c2cc(NC(=O)C3(C)CNC(=O)C3)nn2-c2ccccc2)c1 (racemic)")
680
>>> experimentalvalue("O=C1C[C@@H](C(=O)Nc2cc(-c3cccc(OC(F)(F)F)c3)n(-c3ccccc3F)n2)CN1")
6.3
>>> experimentalvalue("CCOc1cccc(-c2cc(NC(=O)[C@@H]3CNC(=O)C3)nn2-c2ccccc2)c1")
270
>>> experimentalvalue("CC(C)(C)c1cccc(-c2cc(NC(=O)[C@H]3CNC(=O)C3)nn2-c2cccc(Cl)c2)c1")
1.2
>>> experimentalvalue("CCC(F)(F)c1cccc(-c2cc(NC(=O)[C@@H]3CNC(=O)C3)nn2-c2ccccc2)c1")
13

Input: Identify measured IC50 corresponding to `O=C1C[C@@H](C(=O)Nc2cc(-c3cccc(OCC(F)(F)F)c3)n(-c3ccccc3Cl)n2)CN1`
Output: 2.3

Input: Identify measured IC50 corresponding to `CCC(C)(C)c1cccc(-c2cc(NC(=O)[C@@H]3CNC(=O)C3)nn2-c2ccccc2)c1`
Output: 3.8

Input: Identify measured IC50 corresponding to `CCCc1cccc(-c2cc(NC(=O)[C@H]3CNC(=O)N3)nn2-c2ccccc2)c1`
Output: 20

---

Target: human SGLT1 (Homo sapiens (Human), UniProt P13866)
Assay: SGLT1 inhibitory activity: 14C-AMG uptake into CHO-K1 cell line stably expressing human SGLT1
Format: cell-based
Details: 14C-AMG uptake, CHO-K1 cells expressing human SGLT1
readoutLabel: pIC50
Reminder that pIC50 is minus the log10 of a molar concentration.

>>> experimentalvalue("CCCCCCn1nc(NC(=O)C2CNC(=O)C2)cc1-c1ccccc1 (racemic) [Example 13]")
6.60
>>> experimentalvalue("C[C@H]1C(=O)NC[C@@H]1C(=O)Nc1cc(-c2cccc(OC(F)(F)F)c2)n(CCC2CCOCC2)n1 [Example 232]")
7.49
>>> experimentalvalue("CCc1cccc(-c2cc(NC(=O)[C@H]3CNC(=O)C3)nn2-c2ccccc2)c1 [Example 43]")
7.96
>>> experimentalvalue("CCCc1cccc(-c2cc(NC(=O)[C@@H]3CNC(=O)C3)nn2CCC2CCCCC2)c1 [Example 114]")
7.57
>>> experimentalvalue("CCCc1cccc(-c2cc(NC(=O)[C@H]3CNC(=O)C3)nn2C2CCCC2)c1 [Example 64]")
7.92

Input: Identify measured pIC50 corresponding to CC(C)c1cccc(-c2cc(NC(=O)[C@H]3CNC(=O)C3)nn2-c2ccccc2)c1 [Example 54]
Output: 8.00

Input: Identify measured pIC50 corresponding to CCC(F)(F)c1cccc(-c2cc(NC(=O)[C@H]3CNC(=O)[C@@H]3C)nn2-c2ccccc2)c1 [Example 154]
Output: 8.96

Input: Identify measured pIC50 corresponding to Cc1ccc(-c2cc(NC(=O)[C@H]3CNC(=O)C3)nn2-c2ccccc2)cc1 [Example 58]
Output: 5.46

Input: Identify measured pIC50 corresponding to CCCc1cccc(-c2cc(NC(=O)[C@H]3CNC(=O)C3)nn2CCc2ccccc2)c1 [Example 107]
Output: 7.36

Input: Identify measured pIC50 corresponding to C[C@H]1C(=O)NC[C@@H]1C(=O)Nc1cc(-c2cccc(OC(F)(F)F)c2)n(CC2CCOCC2)n1 [Example 200]
Output: 6.92

---

Target: UniProtKB P13866
Test: SGLT1 inhibitory activity: 14C-AMG uptake into CHO-K1 cell line stably expressing human SGLT1
Type: cell-based
Conditions: 14C-AMG uptake, CHO-K1 cells expressing human SGLT1
readoutLabel: IC50
Don't forget the unit after the number, please.

See these solved cases before continuing.
>>> experimentalvalue("CC(C)(O)c1cccc(-c2cc(NC(=O)[C@H]3CNC(=O)C3)nn2-c2ccccc2)c1")
"0.22 µM"
>>> experimentalvalue("CCCc1cccc(-c2cc(NC(=O)[C@@H]3CNC(=O)C3)nn2-c2ccc(C)cc2)c1")
"0.012 µM"
>>> experimentalvalue("CCCn1nc(NC(=O)C2CNC(=O)C2)cc1-c1ccccc1 (racemic)")
"4.4 µM"
>>> experimentalvalue("O=C1C[C@@H](C(=O)Nc2cc(-c3cccc(C(F)(F)F)c3)n(-c3ccccc3)n2)CN1")
"0.023 µM"
>>> experimentalvalue("CCC(F)(F)c1cccc(-c2cc(NC(=O)[C@H]3CNC(=O)C3)nn2-c2ccc(Cl)cc2)c1")
"0.0055 µM"

Input: Identify measured IC50 corresponding to `C[C@H]1C(=O)NC[C@@H]1C(=O)Nc1cc(-c2cccc(OCC(F)(F)F)c2)n(-c2ccc(F)cc2)n1`
Output: 0.0058 µM

Input: Identify measured IC50 corresponding to CCCc1cccc(-c2cc(NC(=O)C3CNC(=O)C3CC)nn2-c2ccccc2)c1 (racemic)
Output: 0.017 µM

Input: Identify measured IC50 corresponding to `CCCc1cccc(-c2cc(NC(=O)[C@H]3CNC(=O)C3)nn2CCC(C)(C)C)c1`
Output: 0.0068 µM

Input: Identify measured IC50 corresponding to `O=C1C[C@@H](C(=O)Nc2cc(-c3cccc(C(F)(F)F)c3)n(-c3ccccc3F)n2)CN1`
Output: 0.0086 µM

Input: Identify measured IC50 corresponding to `CCC(F)(F)c1cccc(-c2cc(NC(=O)[C@H]3CNC(=O)[C@@H]3C)nn2-c2ccc(F)cc2)c1`
Output: 0.0055 µM

Input: Identify measured IC50 corresponding to `COc1cccc(-n2nc(NC(=O)[C@H]3CNC(=O)C3)cc2-c2cccc(OC(F)(F)F)c2)c1`
Output: 0.0071 µM

Input: Identify measured IC50 corresponding to O=C1CCC(C(=O)Nc2cc(-c3cccc(OC(F)(F)F)c3)n(-c3cccc(F)c3)n2)CN1 (single isomer, unassigned)
Output: 0.036 µM

---

Molecular target: human SGLT1 (Homo sapiens (Human))
Test: SGLT1 inhibitory activity: 14C-AMG uptake into CHO-K1 cell line stably expressing human SGLT1
Type: cell-based
Settings: 14C-AMG uptake, CHO-K1 cells stably expressing human SGLT1
readoutLabel: IC50 (nM)
Numeric answer only, unit nM assumed.

>>> experimentalvalue("C[C@H]1C(=O)NC[C@@H]1C(=O)Nc1cc(-c2cccc(COCC(F)(F)F)c2)n(-c2ccccc2)n1")
7.7

Input: Report its IC50 with human SGLT1 (Homo sapiens (Human)) as the test system: `O=C1C[C@H](C(=O)Nc2cc(-c3cccc(COCCC(F)(F)F)c3)n(-c3ccccc3)n2)CN1`
Output: 21.5

Input: Report its IC50 with human SGLT1 (Homo sapiens (Human)) as the test system: `CCCc1cccc(-c2cc(NC(=O)[C@@H]3CNC(=O)N3CCOC)nn2-c2ccccc2)c1`
Output: 7.9

Input: Report its IC50 with human SGLT1 (Homo sapiens (Human)) as the test system: `O=C1C[C@H](C(=O)Nc2cc(-c3cccc(OC(F)(F)F)c3)n(-c3cccc(Cl)c3)n2)CN1`
Output: 23
